# tgt: Serine/threonine-protein kinase ULK2 (Homo sapiens, UniProt Q8IYT8)
# Sequence (Q8IYT8 whole entry): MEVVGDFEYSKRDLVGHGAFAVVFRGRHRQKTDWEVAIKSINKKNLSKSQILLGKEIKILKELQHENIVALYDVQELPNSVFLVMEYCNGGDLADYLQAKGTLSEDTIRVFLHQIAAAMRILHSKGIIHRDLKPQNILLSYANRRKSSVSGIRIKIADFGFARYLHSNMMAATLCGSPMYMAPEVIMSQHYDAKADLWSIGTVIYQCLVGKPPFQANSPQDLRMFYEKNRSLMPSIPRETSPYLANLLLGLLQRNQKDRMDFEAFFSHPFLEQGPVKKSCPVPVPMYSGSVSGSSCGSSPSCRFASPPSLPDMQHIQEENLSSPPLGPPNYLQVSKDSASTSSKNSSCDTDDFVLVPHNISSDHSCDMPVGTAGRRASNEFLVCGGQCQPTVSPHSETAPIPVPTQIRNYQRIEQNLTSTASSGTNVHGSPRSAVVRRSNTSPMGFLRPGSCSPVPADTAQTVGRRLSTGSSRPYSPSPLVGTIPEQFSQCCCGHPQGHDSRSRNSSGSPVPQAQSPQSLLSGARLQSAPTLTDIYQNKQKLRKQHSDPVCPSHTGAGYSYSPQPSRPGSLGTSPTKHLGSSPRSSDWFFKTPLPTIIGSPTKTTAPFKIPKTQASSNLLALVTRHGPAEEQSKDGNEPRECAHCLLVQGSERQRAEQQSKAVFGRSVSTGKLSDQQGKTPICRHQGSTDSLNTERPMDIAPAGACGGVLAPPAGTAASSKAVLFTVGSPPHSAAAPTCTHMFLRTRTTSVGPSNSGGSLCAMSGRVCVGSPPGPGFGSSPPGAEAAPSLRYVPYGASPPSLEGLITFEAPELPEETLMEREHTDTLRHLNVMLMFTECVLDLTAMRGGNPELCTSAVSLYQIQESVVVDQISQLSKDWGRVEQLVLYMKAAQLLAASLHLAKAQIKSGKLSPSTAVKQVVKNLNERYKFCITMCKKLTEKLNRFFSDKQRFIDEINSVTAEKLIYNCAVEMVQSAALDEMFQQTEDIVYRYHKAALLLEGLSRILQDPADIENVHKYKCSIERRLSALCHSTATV
observed property: pIC50
Quick note: pIC50 means taking -log10 of the concentration in moles per liter.

Entry under test: CNC(=O)c1ccccc1Oc1nc(Nc2cc(OC)c(OC)c(OC)c2)ncc1Br . Its pIC50 was 6.15
